Target: Human recombinant MAO-B (Homo sapiens)
Construct: host or cells: insect cells
Sequence (P27338 1-520): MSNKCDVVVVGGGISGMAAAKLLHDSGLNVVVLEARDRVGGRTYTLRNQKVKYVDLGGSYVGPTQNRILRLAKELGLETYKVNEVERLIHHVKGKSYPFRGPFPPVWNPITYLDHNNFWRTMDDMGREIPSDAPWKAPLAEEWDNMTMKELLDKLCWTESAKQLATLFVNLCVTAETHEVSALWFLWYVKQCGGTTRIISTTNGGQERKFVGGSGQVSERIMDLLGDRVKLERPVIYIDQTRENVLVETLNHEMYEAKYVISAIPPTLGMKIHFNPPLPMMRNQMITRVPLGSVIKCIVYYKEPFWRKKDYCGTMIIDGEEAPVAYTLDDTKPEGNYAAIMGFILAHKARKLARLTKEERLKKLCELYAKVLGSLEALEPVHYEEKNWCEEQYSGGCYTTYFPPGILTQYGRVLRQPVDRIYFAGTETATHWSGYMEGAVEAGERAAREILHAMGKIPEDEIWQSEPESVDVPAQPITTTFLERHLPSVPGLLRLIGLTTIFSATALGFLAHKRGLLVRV
Assay: MAO-B enzymatic assay (fluorometric, kynuramine)
Type: biochemical
Conditions: human recombinant MAO-B expressed in insect cells; kynuramine substrate; values given as bins; read-out: MAO-B (pEC50) (converted)
measured-property: EC50

Example molecules with recorded EC50:
# molecule, experimental-target, EC50
records = [
    ("CNC(=O)c1cnc2cc(OCc3cccc(Cl)c3)cnc2c1 [Example 72]", "Human recombinant MAO-B (Homo sapiens)", "< 100 nM"),
    ("OCc1cnc2cc(OCc3cccc(Cl)c3)ccc2c1 [Example 35]", "Human recombinant MAO-B (Homo sapiens)", "< 100 nM"),
    ("NC(=O)c1cnc2cc(OCc3ccc(F)cc3)cnc2c1 [Example 68]", "Human recombinant MAO-B (Homo sapiens)", "< 100 nM"),
    ("CN(C)CCNC(=O)c1cnc2cc(OCc3cccc(Cl)c3)ccc2c1 [Example 49]", "Human recombinant MAO-B (Homo sapiens)", "1000 to 10000 nM"),
    ("CC(C)(O)c1cnc2cc(OCc3cccc(Cl)c3)ccc2c1 [Example 28]", "Human recombinant MAO-B (Homo sapiens)", "< 100 nM"),
    ("CCOC(=O)C(C)(C)c1cnc2cc(OCc3cccc(Cl)c3)ccc2c1 [Example 59]", "Human recombinant MAO-B (Homo sapiens)", "100 to 1000 nM"),
    ("C[C@H](O)c1cnc2cc(OCc3ccc(F)cc3)ccc2c1 [Example 45]", "Human recombinant MAO-B (Homo sapiens)", "< 100 nM"),
    ("CCOC(=O)c1cnc2cc(OCc3ccc(Cl)cc3)ccc2c1 [Example 1]", "Human recombinant MAO-B (Homo sapiens)", "< 100 nM"),
]

Q: Tell me its EC50 given CC(C)(O)c1cnc2cc(OCCc3cccc(F)c3)ccc2c1 [Example 38] as the entry.
Result: 100 to 1000 nM

Q: Annotate the molecule NC(=O)Cc1cnc2cc(OCc3ccc(F)cc3)ccc2c1 [Example 58] with its measured EC50.
Result: < 100 nM
